The entries that follow carry Ki values tested on D(3) dopamine receptor (Homo sapiens, UniProt P35462), drawn from several published reports.
Sequence (P35462 whole entry): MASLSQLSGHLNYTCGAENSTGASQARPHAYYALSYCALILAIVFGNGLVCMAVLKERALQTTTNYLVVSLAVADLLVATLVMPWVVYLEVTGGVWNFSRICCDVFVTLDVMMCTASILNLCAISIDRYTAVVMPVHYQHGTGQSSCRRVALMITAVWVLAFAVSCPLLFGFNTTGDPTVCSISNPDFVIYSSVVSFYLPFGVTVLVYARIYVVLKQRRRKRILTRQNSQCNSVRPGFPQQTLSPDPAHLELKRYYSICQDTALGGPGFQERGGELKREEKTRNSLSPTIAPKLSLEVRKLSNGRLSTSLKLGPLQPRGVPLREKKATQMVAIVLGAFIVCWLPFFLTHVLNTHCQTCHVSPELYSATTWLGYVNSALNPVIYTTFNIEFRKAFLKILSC

{"columns": ["molecule", "value-reported"],
 "data": [
  ["Fc1cccc(CO[C@H]2CCCN(c3ccc(Cl)cc3)C2)c1", "> 10 µM"],
  ["COc1ccc(N2CCN(CCC3c4ccccc4C(=O)N3C)CC2)cc1 (stereo not drawn)", "> 3 µM"]
]}

Now for another entry.
Req: Answer with the recorded Ki of CCCN1CCO[C@@H]2c3cc(C(=O)N(C)C)ccc3CC[C@H]21 only.
Resp: > 10 µM
